target: plasma purified human complement protein C3 (human) (UniProt P01024); test: cell-based or functional assay
Sequence (P01024 23-667, chain 1 of 2): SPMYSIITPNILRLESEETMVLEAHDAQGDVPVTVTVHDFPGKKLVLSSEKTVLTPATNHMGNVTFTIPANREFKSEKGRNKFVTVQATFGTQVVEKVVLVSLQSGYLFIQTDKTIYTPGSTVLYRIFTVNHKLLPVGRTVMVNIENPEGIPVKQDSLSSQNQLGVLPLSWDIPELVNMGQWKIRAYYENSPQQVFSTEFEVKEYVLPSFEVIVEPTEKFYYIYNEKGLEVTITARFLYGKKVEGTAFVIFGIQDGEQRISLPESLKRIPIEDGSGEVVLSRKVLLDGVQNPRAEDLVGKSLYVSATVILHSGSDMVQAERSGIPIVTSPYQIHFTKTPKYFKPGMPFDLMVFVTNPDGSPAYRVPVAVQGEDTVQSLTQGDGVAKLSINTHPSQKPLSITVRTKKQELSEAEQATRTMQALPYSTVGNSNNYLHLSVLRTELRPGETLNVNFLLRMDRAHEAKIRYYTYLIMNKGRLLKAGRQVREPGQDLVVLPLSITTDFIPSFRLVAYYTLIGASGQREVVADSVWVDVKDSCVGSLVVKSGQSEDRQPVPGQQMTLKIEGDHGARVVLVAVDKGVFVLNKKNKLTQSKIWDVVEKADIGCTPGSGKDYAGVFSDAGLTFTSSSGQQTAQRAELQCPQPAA
Sequence (P01024 672-1663, chain 2 of 2): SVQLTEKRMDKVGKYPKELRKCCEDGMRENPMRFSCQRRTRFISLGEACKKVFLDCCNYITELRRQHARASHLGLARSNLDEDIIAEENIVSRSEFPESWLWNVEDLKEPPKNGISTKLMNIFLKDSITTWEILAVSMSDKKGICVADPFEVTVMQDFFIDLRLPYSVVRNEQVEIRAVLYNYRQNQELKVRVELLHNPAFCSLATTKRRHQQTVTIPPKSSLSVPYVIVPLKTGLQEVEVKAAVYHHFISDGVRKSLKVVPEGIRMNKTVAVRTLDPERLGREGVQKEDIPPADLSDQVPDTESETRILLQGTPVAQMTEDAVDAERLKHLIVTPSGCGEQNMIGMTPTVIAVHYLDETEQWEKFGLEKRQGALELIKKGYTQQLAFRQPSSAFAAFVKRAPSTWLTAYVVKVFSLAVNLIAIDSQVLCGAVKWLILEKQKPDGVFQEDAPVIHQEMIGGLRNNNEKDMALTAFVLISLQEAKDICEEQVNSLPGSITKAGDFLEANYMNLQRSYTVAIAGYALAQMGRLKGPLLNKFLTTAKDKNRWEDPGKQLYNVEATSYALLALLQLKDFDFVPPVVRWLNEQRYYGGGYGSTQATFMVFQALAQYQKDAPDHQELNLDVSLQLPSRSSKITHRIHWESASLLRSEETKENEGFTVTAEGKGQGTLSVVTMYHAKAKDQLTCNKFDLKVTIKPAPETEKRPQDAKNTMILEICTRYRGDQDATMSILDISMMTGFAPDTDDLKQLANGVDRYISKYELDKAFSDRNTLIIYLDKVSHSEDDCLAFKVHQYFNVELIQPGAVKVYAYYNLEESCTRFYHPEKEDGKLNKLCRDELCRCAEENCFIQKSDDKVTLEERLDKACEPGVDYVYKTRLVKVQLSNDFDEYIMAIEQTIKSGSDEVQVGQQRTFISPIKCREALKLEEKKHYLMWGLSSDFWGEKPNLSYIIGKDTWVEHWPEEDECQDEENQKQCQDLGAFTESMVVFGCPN
Let's look at some binders and their measured EC50 hC3 cleavage.
Use nM as the unit, but write only the number.

Worked set:
Request: What measured EC50 hC3 cleavage goes with MTSP-1 protease domain I41E/F99L/C122S/G151N/Q192V (enzyme) VVGGTDADEGEWPWQVSLHALGQGHECGASLISPNWLVSAAHCYIDDRGFRYSDPTQWTAFLGLHDQSQRSAPGVQERRLKRIISHPFFNDFTLDYDIALLELEKPAEYSSMVRPISLPDASHVFPAGKAIWVTGWGHTQYGGTNALILQKGEIRVINQTTCENLLPQQITPRMMCVGFLSGGVDSCVGDSGGPLSSVEADGRIFQAGVVSWGDGCAQRNKPGVYTRLPLFRDWIKENTGV ?
Result: 156

Request: Also MTSP-1 protease domain F99L/C122S/G151N/Q192T (enzyme) VVGGTDADEGEWPWQVSLHALGQGHICGASLISPNWLVSAAHCYIDDRGFRYSDPTQWTAFLGLHDQSQRSAPGVQERRLKRIISHPFFNDFTLDYDIALLELEKPAEYSSMVRPISLPDASHVFPAGKAIWVTGWGHTQYGGTNALILQKGEIRVINQTTCENLLPQQITPRMMCVGFLSGGVDSCTGDSGGPLSSVEADGRIFQAGVVSWGDGCAQRNKPGVYTRLPLFRDWIKENTGV ?
Result: 225

Request: Lookup MTSP-1 protease domain I41S/C122S/G151N/Q175R/Q192R (enzyme) VVGGTDADEGEWPWQVSLHALGQGHSCGASLISPNWLVSAAHCYIDDRGFRYSDPTQWTAFLGLHDQSQRSAPGVQERRLKRIISHPFFNDFTFDYDIALLELEKPAEYSSMVRPISLPDASHVFPAGKAIWVTGWGHTQYGGTNALILQKGEIRVINQTTCENLLPQRITPRMMCVGFLSGGVDSCRGDSGGPLSSVEADGRIFQAGVVSWGDGCAQRNKPGVYTRLPLFRDWIKENTGV
Result: 134

Next:
Request: Endpoint output: EC50 hC3 cleavage of MTSP-1 protease domain I41L/N95D/D96T/F97W/F99L/C122S/Q192A (enzyme) VVGGTDADEGEWPWQVSLHALGQGHLCGASLISPNWLVSAAHCYIDDRGFRYSDPTQWTAFLGLHDQSQRSAPGVQERRLKRIISHPFFDTWTLDYDIALLELEKPAEYSSMVRPISLPDASHVFPAGKAIWVTGWGHTQYGGTGALILQKGEIRVINQTTCENLLPQQITPRMMCVGFLSGGVDSCAGDSGGPLSSVEADGRIFQAGVVSWGDGCAQRNKPGVYTRLPLFRDWIKENTGV . Value?
Result: 62.6

Request: Entry MTSP-1 protease domain I41G/F99L/C122S/G151N/Q192T/D217T (enzyme) VVGGTDADEGEWPWQVSLHALGQGHGCGASLISPNWLVSAAHCYIDDRGFRYSDPTQWTAFLGLHDQSQRSAPGVQERRLKRIISHPFFNDFTLDYDIALLELEKPAEYSSMVRPISLPDASHVFPAGKAIWVTGWGHTQYGGTNALILQKGEIRVINQTTCENLLPQQITPRMMCVGFLSGGVDSCTGDSGGPLSSVEADGRIFQAGVVSWGTGCAQRNKPGVYTRLPLFRDWIKENTGV please
Result: 44.7
